- measuredOn: human CD28 (human, UniProt P10747 19-220)
- experimentalProtocol: cell-based or functional assay
Luciferase assay (EC50 nM) reference

binder	Luciferase assay (EC50 nM)
1h-99-237 (other) VH: EVQLLESGGGLVQPGGSLRLSCAASGFTFDSANMSWARQAPGKGLEWVSWIEAPGVQTFYADSVRGRFTISRDNSKNTLYLQMNSLRAEDTAVYYCARSPFGPLYGFDYRGQGTLVTVSS	3
1h-239-8 40K linear PEG (other, 40K linear PEG; site of attachment not stated) VL: DIQMTQSPSSLSASVGDRVTITCRASQSIYPFLEWYQQKPGKAPKLLIYFTSRLQSGVPSRFSGSGSGTDFTLTISSLQPEDFATYYCLQNVTNPATFSQGTKVEIKR	510
1h-99-2 40K branched PEG (other, 40K branched PEG; site of attachment not stated) VH: EVQLLESGGGLVQPGGSLRLSCAASGFTFDSANMSWVRQAPGKGLEWVSWIEDTGTQTFYADSVKGRFTISRDNSKNTLYLQMNSLRAEDTAVYYCAKSPFGPLYGFDYRGQGTLVTVSS	117
1h-239-850 (other) VL: DIQMTQSPSSLSASVGDRVTITCRASRPIWPFLEWYQQKPGKAPKLLIYFTSRLQSGVPSRFSGSGSGTDFTLTISSLQPEDFATYYCLQNVSMPATFSQGTKVEIKR	9
1h-99-2 (other) VH: EVQLLESGGGLVQPGGSLRLSCAASGFTFDSANMSWVRQAPGKGLEWVSWIEDTGTQTFYADSVKGRFTISRDNSKNTLYLQMNSLRAEDTAVYYCAKSPFGPLYGFDYRGQGTLVTVSS	17
1h-99-238 (other) VH: EVQLLESGGGLVQPGGSLRLSCAASGFTFDSANMSWARQAPGKGLEWVSWIEASGVQTFYADSVKGRFTISRDNSKNTLYLQMNSLRAEDTAVYYCAKSPFGPLYGFDYRGQGTLVTVSS	3
1h-239-850 40K linear PEG (other, 40K linear PEG; site of attachment not stated) VL: DIQMTQSPSSLSASVGDRVTITCRASRPIWPFLEWYQQKPGKAPKLLIYFTSRLQSGVPSRFSGSGSGTDFTLTISSLQPEDFATYYCLQNVSMPATFSQGTKVEIKR	2
1h-239-8 (other) VL: DIQMTQSPSSLSASVGDRVTITCRASQSIYPFLEWYQQKPGKAPKLLIYFTSRLQSGVPSRFSGSGSGTDFTLTISSLQPEDFATYYCLQNVTNPATFSQGTKVEIKR	10
